Where do the numbers come from? From PubChem BioAssay (NCI).

- Tested on: SW-620 colon
- assay_remarks: NCI-60 one-dose screen, 48 h
- experimental_conditions: 10 µM unless noted
This is part of a sample that, as a whole, favours compounds with a hit. Of some 83,000 tested, about 20% had one in any assay. Calls of active or inactive are those of the source. The calls were made as follows: active = growth percent below 10; inactive = the rest.
One label from this list, please: active, inactive

Observe how each entry below is paired with its result.
- Nc1nc(Nc2ccccc2SSc2ccccc2Nc2nc(N)nc(-c3ccc(I)cc3)n2)nc(-c2ccc(I)cc2)n1: inactive
- O=C1OC(Oc2ccccc2)(c2ccccc2)c2ccccc21 (centres undefined): inactive
- Cc1sc2nc(N3CCCCC3)[nH]c(=O)c2c1C: inactive

Query: Can you look up the reported call for O=C1c2cccc(NCCN=Cc3ccccc3O)c2C(=O)c2c(NCCN=Cc3ccccc3O)cccc21 for me?
Reply: active

Query: Can you look up the reported call for O=C(O)C1C(c2ccccc2)c2ccccc2C(O)C1CO (centres undefined) for me?
Reply: inactive

Query: Can you look up the reported call for O=C(CC(C(=O)c1ccccc1)N1CCN(Cc2ccccc2)CC1)c1ccccc1 (centres undefined) for me?
Reply: inactive

Query: Can you look up the reported call for CN(C)CCC(=O)Nc1ccc(-n2cc(-c3cccc(NC(=S)Nc4cccc(-c5cn(-c6ccc(NC(=O)CCN(C)C)cc6)nn5)c4)c3)nn2)cc1 for me?
Reply: inactive

* * *

- Tested on: MALME-3M melanoma
- assay_remarks: NCI-60 one-dose screen, 48 h
- experimental_conditions: 10 µM unless noted
- Method: Cells are grown in 96 well plates and exposed to the test compound for 48 hours. Compounds are tested at a single concentration, which is 10^-5 M for most compounds. The reported endpoint is percent growth (GI% or GIPRCNT), where numbers from 0 - 100% represent growth inhibition, and numbers from -100% - 0 represent cell death. For example, a value of 40 represents 60% growth inhibition. A value of 0 means no net growth occurred over the course of the experiment. […]
This is part of a sample that, as a whole, favours compounds with a hit. Of some 83,000 tested, about 20% had one in any assay. Active and inactive are the calls of the source. Rule for the calls: active = growth percent below 10; inactive = the rest.
One label from this list, please: true (1) = active, false (0) = inactive

* c1ccc2nc(N/N=C3\CCCCC3C3CCCCC3)ccc2c1 (stereo not drawn) | false (0)

Query: Can you look up the reported call for CCOc1cc(/C=C/C(=O)CC(=O)/C=C/c2ccc(OC(=O)CNc3nc4ccc(OC)cc4s3)c(OCC)c2)ccc1OC(=O)CNc1nc2ccc(OC)cc2s1 for me?
Reply: false (0)

Query: Can you look up the reported call for Nc1ccccc1C#Cc1ccccc1C#Cc1ccc(OCCCCCCOc2ccc(C#Cc3ccccc3C#Cc3ccccc3N)cc2)cc1 for me?
Reply: false (0)

Query: Can you look up the reported call for CO[C@H]1/C=C/O[C@@]2(C)Oc3c(C)c(O)c4c(O)c(c(/C=N/N5C(C)CN(Cc6ccc(C#N)cc6)CC5C)c(O)c4c3C2=O)NC(=O)/C(C)=C\C=C\[C@H](C)[C@H](O)[C@@H](C)[C@@H](O)[C@@H](C)[C@H](OC(C)=O)[C@@H]1C (stereo partly drawn) for me?
Reply: true (1)

* * *

- Tested on: UACC-257 melanoma
- assay_remarks: NCI-60 one-dose screen, 48 h
- experimental_conditions: 10 µM unless noted
The panel holds about 83,000 compounds, 20% with a hit somewhere; the sample as a whole holds those more often. The source made the active and inactive calls. How the source made its calls: active means growth percent below 10; inactive means the rest.
One label from this list, please: active, inactive

• C(=C1c2ccccc2-c2ccccc21)c1ccncc1 = inactive
• O=C(CNC(=O)c1cccc2ccccc12)Nc1ccccc1Cc1ccccc1 = inactive
• CC12CCC3C(=CCc4cc(O)ccc43)C1CCC2=O (stereo unspecified) = inactive
• N#Cc1c(-c2ccc(F)cc2)n2c(nc1=O)SC(=O)C2=O = inactive

Query: Can you look up the reported call for COc1ccc(CNC(=O)c2c(C)n([O-])c3cc(F)c(F)cc3[n+]2=O)cc1 for me?
Reply: inactive

Query: Can you look up the reported call for O=C(O)c1ccc(CNS(=O)(=O)c2ccc3ccccc3c2)cc1 for me?
Reply: inactive

Query: Can you look up the reported call for O=C(CC1Sc2ccccc2NC1=O)NNc1cccc(Cl)c1Cl (stereo unspecified) for me?
Reply: inactive

Query: Can you look up the reported call for Oc1c(Cl)cc(Cl)c(Cl)c1Cc1c(O)c(Cl)cc(Cl)c1Cl for me?
Reply: active

Query: Can you look up the reported call for COc1cccc(C2=NN(C(C)=O)C(c3cc(OC)c(OC)c(OC)c3)C2)c1 (stereo unspecified) for me?
Reply: inactive

Query: Can you look up the reported call for O=C(NCCNC(=O)Oc1cccc2ccccc12)Oc1cccc2ccccc12 for me?
Reply: inactive

Query: Can you look up the reported call for NS(=O)(=O)c1cc(C2(O)NC(=O)c3ccccc32)ccc1Cl (stereo unspecified) for me?
Reply: inactive
